System Under Test: human IL-21R expressed on cells (human, UniProt Q9HBE5 20-538)
Sequence (Q9HBE5 20-538 limits assumed): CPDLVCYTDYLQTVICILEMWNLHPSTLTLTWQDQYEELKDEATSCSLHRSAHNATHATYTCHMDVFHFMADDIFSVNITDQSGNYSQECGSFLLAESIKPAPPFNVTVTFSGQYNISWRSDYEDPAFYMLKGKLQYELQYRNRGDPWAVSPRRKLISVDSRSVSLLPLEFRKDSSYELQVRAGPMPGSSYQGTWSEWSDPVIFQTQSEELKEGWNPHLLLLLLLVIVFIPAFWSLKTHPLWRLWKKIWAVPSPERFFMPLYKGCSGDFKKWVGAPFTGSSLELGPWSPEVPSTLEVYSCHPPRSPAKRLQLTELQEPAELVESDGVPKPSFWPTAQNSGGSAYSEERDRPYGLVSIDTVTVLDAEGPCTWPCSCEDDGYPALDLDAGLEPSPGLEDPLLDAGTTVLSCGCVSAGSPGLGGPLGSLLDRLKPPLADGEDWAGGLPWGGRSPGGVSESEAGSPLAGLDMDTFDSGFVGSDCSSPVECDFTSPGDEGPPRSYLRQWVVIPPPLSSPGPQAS
Assay Remarks: cell-based or functional assay
Measured Property: Neutralization of human primary T cell Proliferation IC50 (nM)

Binder | Unit Of Measure | Obs Value
AbP (antibody, human IgG1, V domains shown, CDR3 graft, residue limits derived as for m29; also called VHP/VL20; VHPTM/VL20) VH: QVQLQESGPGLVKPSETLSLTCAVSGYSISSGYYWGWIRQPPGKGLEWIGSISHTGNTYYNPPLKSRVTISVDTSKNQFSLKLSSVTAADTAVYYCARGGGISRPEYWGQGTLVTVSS VL: SSELTQDPAVSVALGQTVRITCQGDSLRTYYASWYQQKPGQAPVLVIYGKHKRPSGIPDRFSGSSSGNTASLTITGAQAEDEADYYCVSRSAKGNPHVLFGGGTQLTVL | nM | 0.02

Every entry's value here was drawn from patent US20120276102A1.
